Assignment: determine reported viability, T/C for the given molecules.
tested on: 786-0 complex spheroid viability; experiment: Anticancer human tumor 786-0 cell line growth inhibition; details: second compound 1 µM; first compound 0.03 µM; hits give low values;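 further: spheroids exposed to agents for seven days before readout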
Numbers only, in %.

Below, 5 molecules whose answers are already recorded.
The value of viability, T/C measured for the molecule CCN(c1cc(-c2ccc(CN3CCOCC3)cc2)cc(C(=O)NCc2c(C)cc(C)[nH]c2=O)c1C)C1CCOCC1 + NC1CC1c1ccc(-c2cccc(O)c2)cc1 turned out to be 101

The value of viability, T/C measured for the molecule Nc1ccccc1NC(=O)c1ccc(CNC(=O)OCc2cccnc2)cc1 + NC1CCC(NC2CC2c2ccccc2)CC1 turned out to be 116

The value of viability, T/C measured for the molecule Nc1ccn(C2OC(CO)C(O)C2(F)F)c(=O)n1 (stereo unspecified) + NC1CCC(NC2CC2c2ccccc2)CC1 turned out to be 3.28

The value of viability, T/C measured for the molecule NS(=O)(=O)OCC1CC(n2ccc3c(NC4CCc5ccccc54)ncnc32)CC1O (stereo unspecified) + NC1CC1c1ccc(-c2cccc(O)c2)cc1 turned out to be 98.6

The value of viability, T/C measured for the molecule Nc1ncn(C2CC(O)C(CO)S2)c(=O)n1 (stereo unspecified) + NC1CC1c1ccc(-c2cccc(O)c2)cc1 turned out to be 100

Would you mind giving viability, T/C for every molecule in the list below?
1. O=C(C=Cc1cccc(S(=O)(=O)Nc2ccccc2)c1)NO + NC1CC1c1ccc(-c2cccc(O)c2)cc1
2. COc1cc(C2c3cc4c(cc3C(OC3OC5COC(C)OC5C(O)C3O)C3COC(=O)C23)OCO4)cc(OC)c1O (stereo unspecified) + NC1CC1c1ccc(-c2cccc(O)c2)cc1

Result:
[110, 89.4]
